- tested.on: human TLR7 (Homo sapiens (Human), UniProt Q9NYK1)
- Sequence (Q9NYK1 27-1049): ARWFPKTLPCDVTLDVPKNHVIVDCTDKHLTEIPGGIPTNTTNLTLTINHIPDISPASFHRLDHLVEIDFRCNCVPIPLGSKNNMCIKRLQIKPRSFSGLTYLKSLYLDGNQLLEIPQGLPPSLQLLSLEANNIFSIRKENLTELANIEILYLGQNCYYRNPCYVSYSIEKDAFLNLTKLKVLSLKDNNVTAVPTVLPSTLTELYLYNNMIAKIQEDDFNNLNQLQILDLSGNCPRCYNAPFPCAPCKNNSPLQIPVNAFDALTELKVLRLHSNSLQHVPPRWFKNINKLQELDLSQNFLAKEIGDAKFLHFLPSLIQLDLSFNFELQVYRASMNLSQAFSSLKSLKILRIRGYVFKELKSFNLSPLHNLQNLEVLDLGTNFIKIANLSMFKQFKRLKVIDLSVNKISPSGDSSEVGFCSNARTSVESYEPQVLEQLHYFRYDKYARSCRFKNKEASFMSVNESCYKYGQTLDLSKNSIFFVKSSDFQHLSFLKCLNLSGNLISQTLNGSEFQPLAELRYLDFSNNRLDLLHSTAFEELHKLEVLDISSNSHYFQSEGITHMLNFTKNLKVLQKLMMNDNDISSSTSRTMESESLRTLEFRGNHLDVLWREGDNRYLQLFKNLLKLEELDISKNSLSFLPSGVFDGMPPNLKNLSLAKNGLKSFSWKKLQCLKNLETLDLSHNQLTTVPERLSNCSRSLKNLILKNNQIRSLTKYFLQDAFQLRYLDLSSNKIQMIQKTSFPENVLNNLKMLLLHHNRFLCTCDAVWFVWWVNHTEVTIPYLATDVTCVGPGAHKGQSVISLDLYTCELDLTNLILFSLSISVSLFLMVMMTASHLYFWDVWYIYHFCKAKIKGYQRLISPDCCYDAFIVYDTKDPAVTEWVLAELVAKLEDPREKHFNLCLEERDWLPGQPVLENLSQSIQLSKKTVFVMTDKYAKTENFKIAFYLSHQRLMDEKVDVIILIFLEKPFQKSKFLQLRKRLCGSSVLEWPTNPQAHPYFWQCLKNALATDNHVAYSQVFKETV
- experiment.description: TLR7 inhibition reporter assay (HEK-Blue SEAP)
- Type: cell-based
- cond: HEK-Blue cells overexpressing human TLR7, gardiquimod 7.5 μM stimulation, SEAP reporter
pIC50: −log10 of the molar value.
Measured pIC50 accompanies every entry in the list below.

compound: CC(C)c1c(-c2cn(C)c3ncccc23)[nH]c2ccc(C3CCC(N4CC5(COC5)C4)CC3)nc12 (stereo not shown)
pIC50: 8.57
--
compound: CCn1cc(-c2[nH]c3ccc(C4CCC(NC5CCOCC5)CC4)nc3c2C(C)C)c2cccnc21 (stereo not shown) [Example 292]
pIC50: 7.00
--
compound: CC(C)c1c(-c2cn(CCS(C)(=O)=O)c3ncccc23)[nH]c2ccc(C3CCC(NCC4(S(C)(=O)=O)CC4)CC3)nc12 (stereo not shown) [Example 262]
pIC50: 6.77
--
compound: COc1cc(-c2[nH]c3cc(C)c(C4CCC(N5CC6(COC6)C5)CC4)nc3c2C(C)C)cn2ncnc12 (stereo not shown) [Example 319]
pIC50: 9.36
--
compound: COc1cc(-c2[nH]c3ccc(C4CCC(N(C)Cc5cnc(C)cn5)CC4)nc3c2C(C)C)cn2ncnc12 (stereo not shown) [Example 202]
pIC50: 8.42
--
compound: COc1cc(-c2[nH]c3ccc(C4CCC(NCC(=O)N(C)C)CC4)nc3c2C(C)C)cn2ncnc12 (stereo not shown) [Example 232]
pIC50: 8.52
--
compound: Cc1c(-c2[nH]c3ccc(C4CCC(N(C)C5CC5)CC4)nc3c2C(C)C)cn2ncnc2c1C (stereo not shown) [Example 380]
pIC50: 8.85
--
compound: CCCCN1CCN(c2ccc3[nH]c(-c4cc(OC)c5ncnn5c4)c(C(C)C)c3n2)CC1
pIC50: 8.92
--
compound: Cc1c(-c2[nH]c3ccc(N4CCCNCC4)nc3c2C(C)C)cn2ncnc2c1C
pIC50: 8.55
--
compound: CC(C)c1c(-c2cn(C)c3ncccc23)[nH]c2ccc(C3CCC(NCC(C)(C)S(C)(=O)=O)CC3)nc12 (stereo not shown) [Example 278]
pIC50: 8.82
--
compound: COc1cc(-c2[nH]c3ccc(C4CCC(N(C)C(C)C)CC4)nc3c2C(C)C)cn2ncnc12 (stereo not shown) [Example 168]
pIC50: 9.05
--
compound: COc1cc(-c2[nH]c3ccc(C4CCC(N(C)C5CC5)CC4)nc3c2C(C)C)cn2ncnc12 (stereo not shown) [Example 171]
pIC50: 9.35
--
compound: Cc1c(-c2[nH]c3ccc(N4CCNC[C@@H]4C)nc3c2C(C)C)cn2ncnc2c1C
pIC50: 8.57

====

- tested.on: human TLR9 (Homo sapiens (Human), UniProt Q9NR96)
- Sequence (Q9NR96 26-1032): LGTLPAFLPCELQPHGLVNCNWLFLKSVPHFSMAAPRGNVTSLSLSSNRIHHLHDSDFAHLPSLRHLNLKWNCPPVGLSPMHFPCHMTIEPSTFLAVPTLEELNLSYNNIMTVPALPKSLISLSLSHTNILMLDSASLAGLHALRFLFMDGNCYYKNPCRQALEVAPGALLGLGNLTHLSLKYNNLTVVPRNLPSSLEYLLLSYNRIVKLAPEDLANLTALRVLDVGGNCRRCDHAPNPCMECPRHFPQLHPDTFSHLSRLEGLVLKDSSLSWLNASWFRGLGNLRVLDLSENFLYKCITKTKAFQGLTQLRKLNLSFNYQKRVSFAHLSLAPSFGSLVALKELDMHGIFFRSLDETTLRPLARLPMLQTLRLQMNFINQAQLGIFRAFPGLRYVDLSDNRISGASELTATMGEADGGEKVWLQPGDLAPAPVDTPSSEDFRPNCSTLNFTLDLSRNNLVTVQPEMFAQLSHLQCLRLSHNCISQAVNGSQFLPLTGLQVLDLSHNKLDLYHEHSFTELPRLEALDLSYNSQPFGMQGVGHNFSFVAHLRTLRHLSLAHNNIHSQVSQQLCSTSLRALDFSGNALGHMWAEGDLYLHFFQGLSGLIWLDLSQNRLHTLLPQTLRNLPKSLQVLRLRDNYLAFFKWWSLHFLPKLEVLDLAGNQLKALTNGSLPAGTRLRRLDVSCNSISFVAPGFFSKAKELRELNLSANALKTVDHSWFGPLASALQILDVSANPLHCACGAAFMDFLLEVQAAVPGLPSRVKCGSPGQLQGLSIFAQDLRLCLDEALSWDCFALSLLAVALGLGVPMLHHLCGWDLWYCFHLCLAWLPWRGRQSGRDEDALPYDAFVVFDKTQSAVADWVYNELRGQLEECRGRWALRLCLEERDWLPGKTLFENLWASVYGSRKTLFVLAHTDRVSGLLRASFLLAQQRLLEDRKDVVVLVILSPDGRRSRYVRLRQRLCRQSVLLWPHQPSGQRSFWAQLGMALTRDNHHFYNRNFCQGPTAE
- experiment.description: TLR9 inhibition reporter assay (HEK-Blue SEAP);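 note: SEAP driven by an IFN-β minimal promoter with NF-κB and AP-1 sites, read after 22 h, compounds dosed 0.05 nM–50 µM, inhibition scaled between agonist plus DMSO and reference-inhibitor wells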
- cond: read-out: TLR9 IC50; HEK-Blue human TLR9 cells, ODN2006 5 nM
pIC50: −log10 of the molar value.
Below, each entry is listed alongside its reported pIC50.

compound: Cc1c(-c2[nH]c3ccc(N4CCN(C(=O)CN(C)C(C)C)C[C@H]4C)nc3c2C(C)C)cn2ncnc2c1C
tested.on: human TLR9 (Homo sapiens (Human), UniProt Q9NR96)
value.prefix: =
pIC50: 4.73
--
compound: Cc1c(-c2[nH]c3ccc(N4CC5(C4)CN(C4CCOCC4)C5)nc3c2C(C)C)cn2ncnc2c1C
tested.on: human TLR9 (Homo sapiens (Human), UniProt Q9NR96)
value.prefix: =
pIC50: 5.77
--
compound: Cc1c(-c2[nH]c3ccc(C4CCC(N5CC(C)(C)C5)CC4)nc3c2C(C)C)cn2ncnc2c1C (centres unmarked) [Example 1040]
tested.on: human TLR9 (Homo sapiens (Human), UniProt Q9NR96)
value.prefix: =
pIC50: 5.96
--
compound: Cc1c(-c2[nH]c3ccc(N4[C@@H]5CC[C@H]4CNC5)nc3c2C(C)C)cn2ncnc2c1C
tested.on: human TLR9 (Homo sapiens (Human), UniProt Q9NR96)
value.prefix: =
pIC50: 5.37
--
compound: COC1CN(C2CCC(c3ccc4[nH]c(-c5cn6ncnc6c(C)c5C)c(C(C)C)c4n3)CC2)C1 (centres unmarked) [Example 1042]
tested.on: human TLR9 (Homo sapiens (Human), UniProt Q9NR96)
value.prefix: =
pIC50: 5.48
--
compound: Cc1c(-c2[nH]c3ccc(N4C[C@@H](C)N(C(=O)CCN5CCOCC5)C[C@@H]4C)nc3c2C(C)C)cn2ncnc2c1C
tested.on: human TLR9 (Homo sapiens (Human), UniProt Q9NR96)
value.prefix: <
pIC50: 4.30
--
compound: Cc1c(-c2[nH]c3ccc(N4CCN[C@H](C)C4)nc3c2C(C)C)cn2ncnc2c1C
tested.on: human TLR9 (Homo sapiens (Human), UniProt Q9NR96)
value.prefix: =
pIC50: 5.16
--
compound: Cc1c(-c2[nH]c3ccc(N4CCN(C(=O)CN5CC6(C5)CS(=O)(=O)C6)CC4)nc3c2C(C)C)cn2ncnc2c1C
tested.on: human TLR9 (Homo sapiens (Human), UniProt Q9NR96)
value.prefix: <
pIC50: 4.30
--
compound: Cc1c(-c2[nH]c3ccc(N4C[C@H](C)N(CCCS(C)(=O)=O)C[C@H]4C)nc3c2C(C)C)cn2ncnc2c1C
tested.on: human TLR9 (Homo sapiens (Human), UniProt Q9NR96)
value.prefix: =
pIC50: 4.67
--
compound: Cc1c(-c2[nH]c3ccc(N4[C@@H]5CC[C@H]4CN(C(=O)CN(C)C(C)C)C5)nc3c2C(C)C)cn2ncnc2c1C
tested.on: human TLR9 (Homo sapiens (Human), UniProt Q9NR96)
value.prefix: =
pIC50: 5.18
--
compound: Cc1c(-c2[nH]c3ccc(N4CCN(C(=O)CN(C)C(C)(C)C)C[C@H]4C)nc3c2C(C)C)cn2ncnc2c1C
tested.on: human TLR9 (Homo sapiens (Human), UniProt Q9NR96)
value.prefix: =
pIC50: 5.01
--
compound: Cc1c(-c2[nH]c3ccc(N4CCN(C(C)C)C[C@@H]4C)nc3c2C(C)C)cn2ncnc2c1C
tested.on: human TLR9 (Homo sapiens (Human), UniProt Q9NR96)
value.prefix: =
pIC50: 5.06
--
compound: Cc1c(-c2[nH]c3ccc(N4CC5(C4)CN(C(C)C)C5)nc3c2C(C)C)cn2ncnc2c1C
tested.on: human TLR9 (Homo sapiens (Human), UniProt Q9NR96)
value.prefix: =
pIC50: 5.50
--
compound: Cc1c(-c2[nH]c3ccc(N4CCN(C(=O)CCN(C)C)C[C@H]4C)nc3c2C(C)C)cn2ncnc2c1C
tested.on: human TLR9 (Homo sapiens (Human), UniProt Q9NR96)
value.prefix: =
pIC50: 5.16
